These entries and their values trace back to ChEMBL document CHEMBL4480452.

pKd values for the compounds below.
Study target: Rev responsive element (RRE) RNA
Assay comment: Binding affinity to HIV-1 rev response element SL-IIB RNA by 2-Aminopurine-based fluorescence spectrophotometric analysis
Type: nucleic-acid assay, Human immunodeficiency virus 1
Here pKd is given on a logarithmic scale as minus log10 of the concentration in mol/L.

Example cases with answers are listed next.
N=C(N)N[C@H]1CN[C@H](C(=O)N2C[C@H](N)C[C@@H]2C(=O)NCCN(CC(=O)NCCCC[C@H](NC(=O)CN(CCNC(=O)[C@H]2C[C@@H](N)CN2C(=O)[C@@H]2C[C@@H](NC(=N)N)CN2)C(=O)Cn2cnc3c(=O)[nH]c(N)nc32)C(=O)NCCN(CC(=O)N[C@@H](CCCCNC(=O)c2cnccn2)C(=O)N[C@@H](CCCCNC(=O)c2ccc(B(O)O)cc2)C(=O)N[C@@H](Cc2ccc(O)cc2)C(N)=O)C(=O)Cn2cnc3c(=O)[nH]c(N)nc32)C(=O)Cn2cnc3c(=O)[nH]c(N)nc32)C1 5.93
N=C(N)N[C@@H]1C[C@@H](C(=O)N2C[C@H](NC(=N)N)C[C@H]2C(=O)N[C@@H](CCCCNC(=O)c2cnccn2)C(=O)N[C@@H](Cc2ccc(O)cc2)C(N)=O)N(C(=O)[C@H](CCCCNC(=O)[C@H](CCCCNC(=O)c2cnccn2)NC(=O)[C@H]2C[C@@H](NC(=O)[C@@H]3C[C@@H](NC(=N)N)CN3)CN2)NC(=O)[C@H](CCCCNC(=O)c2cnccn2)NC(=O)[C@H]2C[C@@H](NC(=O)[C@@H]3C[C@@H](NC(=N)N)CN3)CN2)C1 5.89
N=C(N)N[C@@H]1C[C@@H](C(=O)N2C[C@H](N)C[C@@H]2C(=O)N[C@@H](Cc2ccc(O)cc2)C(N)=O)N(C(=O)[C@H]2C[C@@H](N)CN2C(=O)[C@H](CCCCNC(=O)[C@H]2C[C@@H](N)CN2C(=O)[C@@H]2C[C@@H](NC(=N)N)CN2C(=O)[C@H]2C[C@@H](N)CN2)NC(=O)[C@H]2C[C@@H](N)CN2C(=O)[C@@H]2C[C@@H](NC(=N)N)CN2C(=O)[C@H]2C[C@@H](N)CN2)C1 6.14

What measured pKd goes with `N=C(N)N[C@@H]1C[C@@H](C(=O)N[C@H]2CN[C@@H](C(=O)N[C@@H](Cc3ccc(O)cc3)C(N)=O)C2)N(C(=O)CN(CCNC(=O)[C@H](CCCCNC(=O)[C@@H]2C[C@@H](NC(=N)N)CN2C(=O)[C@H]2C[C@@H](N)CN2C(=O)[C@@H](N)CCCCNC(=O)c2cnccn2)NC(=O)[C@@H]2C[C@@H](NC(=N)N)CN2C(=O)[C@H]2C[C@@H](N)CN2C(=O)[C@@H](N)CCCCNC(=O)c2cnccn2)C(=O)Cn2cnc3c(=O)[nH]c(N)nc32)C1` ?
5.95

---

Study target: Rev responsive element (RRE) RNA
Assay comment: Binding affinity to HIV-1 rev response element SL-IIB RNA by 2-Aminopurine-based fluorescence spectrophotometric analysis
Format: nucleic-acid assay, Human immunodeficiency virus 1
Experimental endpoint: Kd (nM)
Report the value in nM with no unit label.

Example cases with answers are listed next.
N=C(N)N[C@H]1CN[C@H](C(=O)N[C@H]2CN[C@@H](C(=O)N[C@@H](Cc3cccc4ccccc34)C(=O)NCCCC[C@H](NC(=O)[C@H](Cc3cccc4ccccc34)NC(=O)[C@H]3C[C@@H](NC(=O)[C@@H]4C[C@@H](NC(=N)N)CN4)CN3)C(=O)NCCN(CC(=O)NCCN(CC(=O)N[C@@H](Cc3cccc4ccccc34)C(=O)N[C@@H](Cc3ccc(O)cc3)C(N)=O)C(=O)Cn3cnc4c(=O)[nH]c(N)nc43)C(=O)Cn3cnc4c(=O)[nH]c(N)nc43)C2)C1 660
N=C(N)N[C@@H]1C[C@@H](C(=O)NCCN(CC(=O)N[C@@H](CCCCNC(=O)c2ccc(B(O)O)cc2)C(=O)N[C@@H](Cc2ccc(O)cc2)C(N)=O)C(=O)Cn2cnc3c(=O)[nH]c(N)nc32)N(C(=O)[C@H](CCCCNC(=O)[C@@H]2C[C@@H](NC(=N)N)CN2C(=O)[C@H]2C[C@@H](NC(=O)[C@@H]3C[C@@H](NC(=N)N)CN3)CN2)NC(=O)[C@@H]2C[C@@H](NC(=N)N)CN2C(=O)[C@H]2C[C@@H](NC(=O)[C@@H]3C[C@@H](NC(=N)N)CN3)CN2)C1 630

Now look at this one.
What measured Kd goes with `N=C(N)N[C@@H]1C[C@@H](C(=O)NCCCC[C@H](NC(=O)[C@@H]2C[C@@H](NC(=N)N)CN2C(=O)[C@H]2C[C@@H](N)CN2C(=O)[C@@H]2C[C@@H](NC(=N)N)CN2)C(=O)N[C@@H](CCCCNC(=O)c2cnccn2)C(=O)N[C@@H](CCCCNC(=O)c2cnccn2)C(=O)NCCN(CC(=O)N[C@@H](Cc2ccc(O)cc2)C(N)=O)C(=O)Cn2cnc3c(=O)[nH]c(N)nc32)N(C(=O)[C@H]2C[C@@H](N)CN2C(=O)[C@@H]2C[C@@H](NC(=N)N)CN2)C1` ?
1120
